# system-tested: Heat shock protein HSP 90-beta (Homo sapiens, UniProt P08238)
# Sequence (P08238 whole entry): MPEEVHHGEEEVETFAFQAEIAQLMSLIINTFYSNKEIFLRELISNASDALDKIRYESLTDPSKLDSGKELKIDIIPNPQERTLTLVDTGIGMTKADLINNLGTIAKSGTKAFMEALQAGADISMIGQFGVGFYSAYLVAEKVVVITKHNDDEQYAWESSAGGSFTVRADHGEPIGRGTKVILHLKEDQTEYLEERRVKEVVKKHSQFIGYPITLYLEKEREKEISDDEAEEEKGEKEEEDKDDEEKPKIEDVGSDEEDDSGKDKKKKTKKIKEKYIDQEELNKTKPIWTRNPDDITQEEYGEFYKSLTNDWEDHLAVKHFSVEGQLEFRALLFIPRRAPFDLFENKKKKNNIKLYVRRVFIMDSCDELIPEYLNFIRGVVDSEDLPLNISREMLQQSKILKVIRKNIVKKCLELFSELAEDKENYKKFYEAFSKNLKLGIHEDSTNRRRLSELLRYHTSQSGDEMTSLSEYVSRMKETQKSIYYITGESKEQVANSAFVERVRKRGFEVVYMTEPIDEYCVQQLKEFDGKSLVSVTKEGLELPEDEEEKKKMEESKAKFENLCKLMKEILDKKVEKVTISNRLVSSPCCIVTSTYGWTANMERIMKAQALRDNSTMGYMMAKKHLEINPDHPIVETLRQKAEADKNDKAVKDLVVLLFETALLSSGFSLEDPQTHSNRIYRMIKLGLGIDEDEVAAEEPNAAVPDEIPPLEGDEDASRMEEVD
# measurement-description: Her-2 Degradation Assay
# run-conditions: pH 7.2; 37 °C
Listed compounds paired with reported EC50
Express it in µM; write the number only.

The cases that follow already have their EC50 on record.
- compound: "CCCCn1c(Sc2cc(OC)ccc2OC)nc2c(N)ncnc21"
  reported-value: 3.5
- compound: "CCCCn1c(Cc2cc(OC)ccc2OC)nc2c(N)ncnc21"
  reported-value: 12
- compound: "CCC(CC)NCCCn1c(Sc2cc(OC)ccc2I)nc2c(N)ncnc21"
  reported-value: 0.21
- compound: "COc1ccc(I)c(Sc2nc3c(N)ncnc3n2CCCNC(C)C)c1"
  reported-value: 0.18

Value lookup for EC50; key = "CCCCn1c(Cc2cc(OC)ccc2Cl)nc2c(N)ncnc21"
20

Next entry: "COc1ccc(I)c(Sc2nc3c(N)ncnc3n2CCC=C(C)C)c1"
0.37

Next entry: "CCCCn1c(Cc2cc(OC)ccc2Br)nc2c(N)ncnc21"
8

Next entry: "COc1ccc(I)c(Sc2nc3c(N)ncnc3n2CCCNC(C)(C)C)c1"
0.14

Next entry: "C#CCCCn1c(Sc2cc(OC)ccc2I)nc2c(N)nc(F)nc21"
0.36

Next entry: "COc1ccc(I)c(Sc2nc3c(N)ncnc3n2CCNCC(C)C)c1"
0.1

Next entry: CCC(C)NCCCn1c(Sc2cc(OC)ccc2I)nc2c(N)ncnc21 (configuration not stated)
0.21

Next entry: "CCCCn1c(Cc2cc(OC)ccc2I)nc2c(N)ncnc21"
5
